assay-procedure: AUC in iv dosed Sprague-Dawley rat; note: test concentration or dose not given here
Type: ADME, organism-based
details: plasma
Below, each of the compounds is paired with its reported AUC value.
Report the figure in ng·h/mL without appending any unit label.

Here are 2 compounds together with their reported answers.
{"smiles-input": "CCN(CC)c1ncc(N(C)S(=O)(=O)c2ccc(Cl)cc2)c(N[C@@H](Cc2ccc(OC(=O)N3CCCC3)cc2)C(=O)O)n1", "reported-property": "AUC", "assay-result": 153000}
{"smiles-input": "CCN(CC)c1ncc(N(CC)S(=O)(=O)c2ccc(F)cc2)c(N[C@@H](Cc2ccc(OC(=O)N(C)C)cc2)C(=O)O)n1", "reported-property": "AUC", "assay-result": 32000}

Query :: Entry under review: CCN(CC)c1ncc(N(C)S(=O)(=O)c2ccc(C)cc2)c(N[C@@H](Cc2ccc(OC(=O)N3CCCC3)cc2)C(=O)O)n1 . Reported AUC?
Result :: 173000

Query :: Entry under review: CCN(CC)c1ncc(N(C)S(=O)(=O)c2ccc(Cl)cc2)c(N[C@@H](Cc2ccc(OC(=O)N(C)C)cc2)C(=O)O)n1 . Reported AUC?
Result :: 32000

Values from ChEMBL document CHEMBL2380222
